Sourced from paper PMC4891047

assayed_system: ABCB1 (Homo sapiens)
Construct: membrane vesicles (Pgp-Glo assay system)
Sequence (P08183 whole entry): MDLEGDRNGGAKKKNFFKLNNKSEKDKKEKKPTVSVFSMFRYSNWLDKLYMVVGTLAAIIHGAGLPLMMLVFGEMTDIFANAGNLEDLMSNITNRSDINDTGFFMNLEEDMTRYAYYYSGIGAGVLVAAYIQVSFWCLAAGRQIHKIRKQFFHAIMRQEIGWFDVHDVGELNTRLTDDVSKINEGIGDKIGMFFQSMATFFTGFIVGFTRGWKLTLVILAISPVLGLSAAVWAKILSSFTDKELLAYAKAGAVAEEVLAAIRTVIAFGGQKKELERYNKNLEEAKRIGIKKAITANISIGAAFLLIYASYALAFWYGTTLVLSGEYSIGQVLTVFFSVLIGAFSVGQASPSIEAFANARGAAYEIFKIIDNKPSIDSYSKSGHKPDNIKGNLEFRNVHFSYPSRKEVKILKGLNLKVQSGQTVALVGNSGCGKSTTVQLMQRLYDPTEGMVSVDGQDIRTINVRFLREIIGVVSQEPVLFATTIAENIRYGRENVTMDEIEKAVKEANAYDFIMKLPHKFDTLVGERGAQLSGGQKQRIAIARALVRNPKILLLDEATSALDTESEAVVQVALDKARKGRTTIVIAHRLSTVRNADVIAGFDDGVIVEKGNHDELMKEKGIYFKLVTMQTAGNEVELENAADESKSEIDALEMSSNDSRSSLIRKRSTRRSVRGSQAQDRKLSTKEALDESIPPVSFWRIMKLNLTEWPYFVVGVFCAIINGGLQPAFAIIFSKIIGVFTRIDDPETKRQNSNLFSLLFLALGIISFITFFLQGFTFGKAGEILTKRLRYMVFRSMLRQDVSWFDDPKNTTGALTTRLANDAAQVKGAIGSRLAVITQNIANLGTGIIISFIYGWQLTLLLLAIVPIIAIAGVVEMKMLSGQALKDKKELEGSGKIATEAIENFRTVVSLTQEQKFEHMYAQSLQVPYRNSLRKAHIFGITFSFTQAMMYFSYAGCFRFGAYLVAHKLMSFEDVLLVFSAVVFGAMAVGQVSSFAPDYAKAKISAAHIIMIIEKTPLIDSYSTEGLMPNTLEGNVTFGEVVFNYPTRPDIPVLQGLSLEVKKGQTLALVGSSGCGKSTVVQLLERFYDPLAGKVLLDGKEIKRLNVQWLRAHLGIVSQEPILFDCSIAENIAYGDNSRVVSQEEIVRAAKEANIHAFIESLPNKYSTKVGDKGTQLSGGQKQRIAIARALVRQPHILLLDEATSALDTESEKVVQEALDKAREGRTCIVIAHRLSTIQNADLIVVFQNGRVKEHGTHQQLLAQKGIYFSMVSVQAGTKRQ
procedure_summary: biochemical
test_readout: pEC50
The value called pEC50 is obtained by taking minus log10 of the concentration in mol/L.

>>> measured_number("CC(C)=CCC[C@](C)(O)[C@H]1CC[C@]2(C)[C@@H]1[C@H](O)C[C@@H]1[C@@]3(C)CC[C@H](O)C(C)(C)[C@@H]3CC[C@]12C [PPD, 20(S)-protopanoxadiol]")
5.50

# next compound below
Lab note: "COc1ccc(CNCCC[C@](C)(O)[C@H]2CC[C@]3(C)[C@@H]2[C@H](O)C[C@@H]2[C@@]4(C)CC[C@H](O)C(C)(C)[C@@H]4CC[C@]23C)cc1" gave pEC50 of 5.62
